Parameter: calcium oscillation score. Scope: all listed entries.
Target: Tau
Experiment: rat primary cortical neurons, FLIPR, 25 uM ASO
Bases are written 5' to 3'; sugars and linkages follow in the same order, as letters with counts (s phosphorothioate, o phosphodiester; PS: all linkages phosphorothioate). The collection does not say whether C is 5-methylated. l = locked nucleic acid (LNA); d = 2'-deoxy (DNA)

Please review the entries below; each comes with its answer.
CATTCTATACTTCAGA (sugars l3 d9 l4, PS)
79 % of control
AGAACTTCTAGTTATACAGT (sugars l3 d14 l3, PS)
35.7 % of control
CAGCTAAGACCCTCAGGTTT (sugars l3 d14 l3, PS)
38.5 % of control

stdin: Return the recorded calcium oscillation score value; entry: ACTTTATTTCCAAATTCACT (sugars l5 d11 l4, PS)
stdout: 138 % of control

stdin: Output calcium oscillation score of CTCTTTGAACACCCCATC (sugars l3 d13 l2, PS)
stdout: 41.9 % of control

stdin: Give calcium oscillation score for the following sequence: AGCCCTAAAGTCCCAG (sugars l3 d10 l3, PS)
stdout: 38.1 % of control

stdin: Please give measured calcium oscillation score of the following entry: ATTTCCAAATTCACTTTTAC (sugars llldldddddddddlddlll, PS)
stdout: 118 % of control

stdin: Identify calcium oscillation score associated with the sequence GTTAACTCATCAACACC (sugars l4 d10 l3, PS)
stdout: 86.6 % of control

stdin: Name the recorded calcium oscillation score of the item ACTTTATTTCCAAATTCACTT (sugars l5 d11 l5, PS) in your answer.
stdout: 121 % of control

stdin: For the sequence TCCTTCTTCATTCTTG (sugars l3 d10 l3, PS) , report calcium oscillation score.
stdout: 23.8 % of control

stdin: Identify the reported calcium oscillation score for the following entry. TTTCATGTTAAATCCCT (sugars l4 d10 l3, PS)
stdout: 94.2 % of control

stdin: Tell me calcium oscillation score reported for TTTGAGTTGAGGGACC (sugars l3 d10 l3, PS)
stdout: 0 % of control

stdin: Provide one value: measured calcium oscillation score of TTGAAGTCCCGAGC (sugars l3 d8 l3, PS)
stdout: 0 % of control

stdin: Specify measured calcium oscillation score for CGTCCCAGCGTGATCTTCCA (sugars l4 d11 l5, PS) .
stdout: 42.6 % of control

stdin: Return calcium oscillation score (reported value) for this sequence: CTCATTTACCAATTATCTTT (sugars l4 d14 l2, PS)
stdout: 64 % of control

* * *

Biological target: Tau
Assay: rat primary cortical neurons, FLIPR, 25 uM ASO
Bases are written 5' to 3'; sugars and linkages follow in the same order, as letters with counts (s phosphorothioate, o phosphodiester; PS: all linkages phosphorothioate). The collection does not say whether C is 5-methylated. l = locked nucleic acid (LNA); d = 2'-deoxy (DNA)
The sequences listed here are annotated with their calcium oscillation score.

A selection of reference data follows.
CCAGACACCACTGGCGACTT (sugars l3 d14 l3, PS)
128 % of control
ATTAACCCTTGATCATATTT (sugars l3 d14 l3, PS)
40.5 % of control
AGACCACATTTCCATCCC (sugars l1 d15 l2, PS)
71.6 % of control

stdin: Give calcium oscillation score only, for TTAATTCATAAATGACTATA (sugars l3 d14 l3, PS) , using Tau data.
stdout: 58.4 % of control

stdin: Enter measured calcium oscillation score, system Tau, for the sequence shown: ATTGTCCAGGGACCCAATCT (sugars l3 d14 l3, PS)
stdout: 50.9 % of control
